Data origin, for the record: patent US20260166021A1

assay: Solubility screening of Formula (I) in crystallization solvents at RT and 50° C. (TABLE 3)
Format: physicochemical
condition details: methanol, organic solvent or mixture, thermodynamic from solid, MeOH; RT; read-out: Nominal Solubility
readout kind: solubility (mg/mL)

1) CC[C@H](C)C(=O)N1CCC(NC(=O)Nc2ccc(OC(F)(F)F)c(F)c2)CC1 : 43.2

====

assay: Solubility screening of Formula (I) in crystallization solvents at RT and 50° C. (TABLE 3)
Assay type: physicochemical
condition details: DMF, organic solvent or mixture, thermodynamic from solid, DMF; RT; read-out: Nominal Solubility
readout kind: solubility (mg/mL)

1) CC[C@H](C)C(=O)N1CCC(NC(=O)Nc2ccc(OC(F)(F)F)c(F)c2)CC1 [Formula (I)] : 46.1
